src = paper PMC4664966

target: CYP2C9 (Homo sapiens, UniProt P11712); assay: Selectivity data (Table S1); format: in vitro ADME; settings: 3 µM
Sequence (P11712 whole entry): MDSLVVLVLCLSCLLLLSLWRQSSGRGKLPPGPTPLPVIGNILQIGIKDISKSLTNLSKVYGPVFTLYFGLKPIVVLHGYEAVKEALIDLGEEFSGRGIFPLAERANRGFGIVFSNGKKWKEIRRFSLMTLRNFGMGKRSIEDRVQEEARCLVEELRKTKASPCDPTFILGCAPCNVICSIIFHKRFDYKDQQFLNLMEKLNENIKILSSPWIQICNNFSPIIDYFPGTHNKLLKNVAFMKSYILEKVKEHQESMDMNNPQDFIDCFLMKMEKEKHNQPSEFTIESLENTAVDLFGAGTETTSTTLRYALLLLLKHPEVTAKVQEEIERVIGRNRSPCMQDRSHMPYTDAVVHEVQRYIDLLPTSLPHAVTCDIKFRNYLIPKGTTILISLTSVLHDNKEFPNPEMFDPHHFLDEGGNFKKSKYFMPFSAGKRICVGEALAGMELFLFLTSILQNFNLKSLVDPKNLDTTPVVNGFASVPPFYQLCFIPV

- Molecule: "CC(C)(C)c1ccc(CC[C@@](O)(CC(=O)O)C(=O)O)cc1 [Compound 2]"
  inhibition at 3 µM: "< 10%"

* * *

target: UniProt Q12809
Sequence (Q12809 whole entry): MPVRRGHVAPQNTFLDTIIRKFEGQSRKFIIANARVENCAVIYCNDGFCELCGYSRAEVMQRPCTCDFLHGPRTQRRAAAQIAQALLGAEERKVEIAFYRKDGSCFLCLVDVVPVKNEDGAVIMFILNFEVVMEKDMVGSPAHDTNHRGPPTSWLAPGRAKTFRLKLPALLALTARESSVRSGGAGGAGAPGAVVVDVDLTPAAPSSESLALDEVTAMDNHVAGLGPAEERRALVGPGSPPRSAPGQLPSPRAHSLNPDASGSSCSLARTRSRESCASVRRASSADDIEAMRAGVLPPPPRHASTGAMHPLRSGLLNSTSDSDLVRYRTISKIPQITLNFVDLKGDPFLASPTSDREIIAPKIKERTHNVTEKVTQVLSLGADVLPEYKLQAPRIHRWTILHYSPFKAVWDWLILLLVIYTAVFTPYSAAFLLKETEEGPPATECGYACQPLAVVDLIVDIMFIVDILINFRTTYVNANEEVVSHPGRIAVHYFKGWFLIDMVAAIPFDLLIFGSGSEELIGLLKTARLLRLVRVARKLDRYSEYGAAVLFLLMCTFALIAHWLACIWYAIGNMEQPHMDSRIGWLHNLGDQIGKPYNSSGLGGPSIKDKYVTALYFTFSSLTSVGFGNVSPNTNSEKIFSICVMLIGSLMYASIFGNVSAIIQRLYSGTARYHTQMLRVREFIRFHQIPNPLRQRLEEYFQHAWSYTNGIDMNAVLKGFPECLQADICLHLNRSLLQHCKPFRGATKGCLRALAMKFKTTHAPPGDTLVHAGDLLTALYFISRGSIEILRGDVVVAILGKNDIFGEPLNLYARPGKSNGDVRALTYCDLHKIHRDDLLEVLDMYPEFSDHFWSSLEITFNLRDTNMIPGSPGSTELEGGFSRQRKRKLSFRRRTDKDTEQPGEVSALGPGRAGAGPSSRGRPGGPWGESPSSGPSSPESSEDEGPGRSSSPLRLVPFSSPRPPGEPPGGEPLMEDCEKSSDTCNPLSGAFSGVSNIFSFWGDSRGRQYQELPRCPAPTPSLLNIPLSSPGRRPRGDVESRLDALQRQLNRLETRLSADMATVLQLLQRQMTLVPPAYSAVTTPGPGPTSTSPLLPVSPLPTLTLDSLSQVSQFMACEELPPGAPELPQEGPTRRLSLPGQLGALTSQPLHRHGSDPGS
pIC50: −log10 of the molar value.
Endpoint label: pIC50

- Compound: "CC(C)(C)c1ccc(CC[C@@](O)(CC(=O)O)C(=O)O)cc1 [Compound 2]"
  Assay result: "< 4.00"

* * *

biological target: Monoacylglycerol acyltransferase 2 (MGAT2) (Homo sapiens)
Sequence (Q3SYC2 whole entry): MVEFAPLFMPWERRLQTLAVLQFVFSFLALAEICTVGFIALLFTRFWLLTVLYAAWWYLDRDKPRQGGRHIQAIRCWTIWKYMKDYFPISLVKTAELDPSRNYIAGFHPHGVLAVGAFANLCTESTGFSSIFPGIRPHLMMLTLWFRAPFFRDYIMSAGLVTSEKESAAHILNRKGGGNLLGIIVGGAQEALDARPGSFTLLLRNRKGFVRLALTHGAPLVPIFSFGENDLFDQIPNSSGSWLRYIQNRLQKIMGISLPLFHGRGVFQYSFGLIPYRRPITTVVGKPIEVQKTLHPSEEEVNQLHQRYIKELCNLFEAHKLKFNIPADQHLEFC
pIC50: −log10 of the molar value.
Endpoint label: pIC50

- Smiles code: "CC(C)(C)c1ccc(CC[C@@](O)(CC(=O)O)C(=O)O)cc1"
  Endpoint label: "pIC50"
  Assay result: "< 4.30"

* * *

test: Plasma fraction unbound; assay type: in vitro ADME; conditions: mouse, read-out: mouse plasma fu
Endpoint label: fraction unbound

- Molecule: "CC(C)(C)c1ccc(CC[C@@](O)(CC(=O)O)C(=O)O)cc1 [Compound 2]"
  Assay result: 0.26
